# Tested on: MCF-7 (breast carcinoma)
# EXPERIMENT: CCK-8 antiproliferative assay, MCF-7
# Type: cell-based
# RUN CONDITIONS: Homo sapiens, MCF7, 48 h, CCK8, mean of three independent experiments, NA = no activity, read-out: Inhibitory Ratio (Mean% ± SD%) MCF-7
QUANTITY KIND: inhibition at 20 µM (%)
Unit % implied. Number only.

Worked examples, 5 compounds total:
{"columns": ["COMPOUND", "QUANTITY KIND", "VALUE UNIT", "NUMERIC READOUT"],
 "data": [
  ["CC(O)C1CCC2C3CC=C4C(C)(C)c5nc6ccc(F)cc6nc5CC4(C)C3CCC12C (stereo not drawn) [Compound 10c]", "inhibition at 20 µM", "%", 3.85],
  ["Cc1ccc(NC(=O)c2cnc3c(n2)C(C)(C)C2=CCC4C(CCC5(C)C(C(C)O)CCC45)C2(C)C3)cc1 (stereo not drawn) [Compound 12d]", "inhibition at 20 µM", "%", 25],
  ["CC(O)C1CCC2C3CC=C4C(C)(C)c5nc6cc(Cl)ccc6nc5CC4(C)C3CCC12C (stereo not drawn) [Compound 10f]", "inhibition at 20 µM", "%", 23.9],
  ["CC(O)C1CCC2C3CC=C4C(C)(C)c5nccnc5CC4(C)C3CCC12C (stereo not drawn) [Compound 10a]", "inhibition at 20 µM", "%", 4.99],
  ["CC1(C)C2=CCC3C(CC[C@@]4(C)C3CC[C@@H]4C(=O)O)[C@@]2(C)Cc2nc3ccc(Br)cc3nc21 (stereo partly drawn)", "inhibition at 20 µM", "%", 12.4]
]}

Q: Give the reported inhibition at 20 µM for this compound. CC(O)C1CCC2C3CC=C4C(C)(C)c5nc6cc(F)ccc6nc5CC4(C)C3CCC12C (stereo not drawn) [Compound 10d]
Result: 21.2

Q: Give the reported inhibition at 20 µM for this compound. CC(O)C1CCC2C3CC=C4C(C)(C)c5nc6ccc(O)cc6nc5CC4(C)C3CCC12C (stereo not drawn) [Compound 10i]
Result: 17.9

Q: Give the reported inhibition at 20 µM for this compound. COc1ccc2nc3c(nc2c1)C(C)(C)C1=CCC2C(CCC4(C)C(C(C)O)CCC24)C1(C)C3 (stereo not drawn) [Compound 10l]
Result: 41.6

Q: Give the reported inhibition at 20 µM for this compound. CC(O)C1CCC2C3CC=C4C(C)(C)c5nc6cc(O)ccc6nc5CC4(C)C3CCC12C (stereo not drawn) [Compound 10j]
Result: 18.6

Q: Give the reported inhibition at 20 µM for this compound. COc1cccc(NC(=O)c2cnc3c(n2)C(C)(C)C2=CCC4C(CCC5(C)C(C(C)O)CCC45)C2(C)C3)c1 (stereo not drawn) [Compound 12l]
Result: 13.8

Q: Give the reported inhibition at 20 µM for this compound. CC(O)C1CCC2C3CC=C4C(C)(C)c5nc6ccc([N+](=O)[O-])cc6nc5CC4(C)C3CCC12C (stereo not drawn) [Compound 10m]
Result: 14.7

Q: Give the reported inhibition at 20 µM for this compound. CC1(C)C2=CCC3C(CC[C@@]4(C)C3CC[C@@H]4C(=O)O)[C@@]2(C)Cc2nccnc21 (stereo partly drawn)
Result: 3.09

Q: Give the reported inhibition at 20 µM for this compound. O=c1[nH]cc(F)c(=O)[nH]1 [Compound 5-FU, 5-fluorouracil, reference compound]
Result: 47.9

Q: Give the reported inhibition at 20 µM for this compound. CC(O)C1CCC2C3CC=C4C(C)(C)c5nc6cc([N+](=O)[O-])ccc6nc5CC4(C)C3CCC12C (stereo not drawn) [Compound 10n]
Result: 20

Q: Give the reported inhibition at 20 µM for this compound. CC(O)C1CCC2C3CC=C4C(C)(C)c5nc(C(=O)Nc6cccc(F)c6)cnc5CC4(C)C3CCC12C (stereo not drawn) [Compound 12f]
Result: 0.8

The measured values listed here are drawn from paper PMC7084598.
